Ref: patent US6528049B2

- Tested on: male codling moth
- Assay comment: Pheromone preference paired-trap test: pheromone alone vs pheromone + HPV
- Format: in vivo, Cydia pomonella
- Conditions used: Table 9; 10 mg/red septum
Observation type: Male CM Capture with Pheromone + HPV Blend: ♂♂/trap/night ± SEM

# Compound, Result
rows = [
    ("C=CC(=C)CCC=C(C)C [Myrcene]", "1.03 ± 0.26 ♂♂/trap/night"),
    ("CC1=CCC(C(C)C)=CC1 [gamma-Terpinene]", "0.88 ± 0.28 ♂♂/trap/night"),
    ("C=C1/C=C/[C@H](C(C)C)CC/C(C)=C/CC1 [Germacrene-D]", "0.86 ± 0.19 ♂♂/trap/night"),
]

Okay, now this compound:
Consider the compound C=C/C(C)=C/C/C=C(\C)CCC=C(C)C [alpha-Farnesene] and give its measured Male CM Capture with Pheromone + HPV Blend: ♂♂/trap/night ± SEM.
1.38 ± 0.39 ♂♂/trap/night
